test_details: logP by HPLC on reversed-phase columns (C 18), EEC Directive 79/831 Annex V.A8
Format: physicochemical
condition_notes: reversed-phase C18 HPLC column, pH 2.7, [a] LC-MS, acidic range, pH 2.7, 0.1% aqueous formic acid/acetonitrile; read-out: logP(HCOOH)
# strict inequality: chromatographic logP < 4 yields TRUE, everything else yields FALSE

>>> print(df.to_string())
                                   compound  qualitative_label
0  O=C(Nc1cc(SSc2cc(NC(=O)C(F)(F)F)c(F)cc2Br)c(Br)cc1F)C(F)(F)F              FALSE
1  Cc1cc(F)c(/N=C(/Nc2ccccc2)C(F)(F)F)cc1[S+]([O-])CC(F)(F)F (stereo not drawn)               TRUE
2  Cc1cc(F)c(/N=C(/NCC2CC2)C(F)(F)F)cc1SCC(F)(F)F              FALSE
3  O=C(Nc1cc(SCC(F)(F)F)c(Br)cc1Br)C(F)(F)F               TRUE
4     FC(F)(F)CSc1cc(N=C(Cl)C(F)(F)F)ccc1Cl              FALSE
5  Cc1cc(F)c(/N=C(\c2ccco2)N(C)C)cc1SCC(F)(F)F               TRUE
6  Cc1cc(F)c(/N=C(/Nc2ccc(C(F)(F)F)cc2)C(F)(F)F)cc1SCC(F)(F)F              FALSE
7  COc1cc(C)c(SSc2cc(NC(C)=O)c(OC)cc2C)cc1NC(C)=O               TRUE

* * *

Listed here: items and their measured pest or weed control at 500 g/ha.
Test system: greenhouse red spider mite (Tetranychus urticae)
test_details: Tetranychus urticae spray test, OP-resistant (TETRUR), bean leaf disks
Assay type: in vivo
condition_notes: Tetranychus urticae, foliar, 144 h, application rate 500 g/ha, after 6 days; read-out: efficacy (spider mites killed)
property_name: pest or weed control at 500 g/ha (%)

                                    compound  result_units  reported_measurement
 0  Cc1cc(F)c(/N=C(\c2ccc(C(F)(F)F)nc2)N(C)C)cc1[S+]([O-])CC(F)(F)F (stereo not shown)             %                   100
 1  CN/C(=N\c1cc(SCC(F)(F)F)c(C)cc1F)c1ccncc1             %                   100
 2  Cc1cc(F)c(/N=C2\SCC(=O)N2C2CC2)cc1SCC(F)(F)F             %                   100
 3  CN/C(=N\c1cc(SCC(F)(F)F)c(C)cc1C)c1cccnc1             %                    90
 4    Cc1cc(F)c(/N=C(\N)C2CCC2)cc1SCC(F)(F)F             %                   100
 5  Cc1cc(F)c(/N=C(/c2ccc(Cl)cc2)N2CCC(F)(F)CC2)cc1SCC(F)(F)F             %                    90
 6  CN/C(=N/c1cc(SCC(F)(F)F)c(Br)cc1Br)C(F)(F)F             %                   100
 7    CN1CCC/C1=N\c1cc(SCC(F)(F)F)c(Cl)cc1Cl             %                    90
 8  N/C(=N/c1cc(SCC(F)(F)F)c(Br)cc1Br)C(F)(F)F             %                   100
 9  CN/C(=N\c1cc([S+]([O-])CC(F)(F)F)c(C)cc1F)c1ccccn1 (stereo not shown)             %                   100
10  N/C(=N\c1cc([S+]([O-])CC(F)(F)F)c(Cl)cc1Cl)C1(Cl)CC1 (stereo not shown)             %                   100
11  Cc1cc(F)c(/N=C(\N(C)C)C2(C(C)C)CC2(Cl)Cl)cc1SCC(F)(F)F (stereo not shown)             %                    90
12  CN(C)/C(=N/c1cc([S+]([O-])CC(F)(F)F)c(Br)cc1Br)C(F)(F)F (stereo not shown)             %                   100
13  Cc1cc(F)c(/N=C(\c2cccn2C)N(C)C)cc1SCC(F)(F)F             %                   100
14  C=CCN/C(=N\c1cc(SCC(F)(F)F)c(C)cc1F)c1ccc(Cl)nc1             %                   100
15  Cc1cc(F)c(/N=C(\N)C2CCCCC2)cc1[S+]([O-])CC(F)(F)F (stereo not shown)             %                   100
16  Cc1cc(F)c(/N=C2\CCCN2c2ccccc2)cc1SCC(F)(F)F             %                   100
17  Cc1cc(F)c(/N=c2\scc(C3(Cl)CC3)n2CC(F)(F)F)cc1SCC(F)(F)F             %                   100
18  Cc1cc(Cl)c([S+]([O-])CC(F)(F)F)cc1/N=C(\N)c1cnccn1 (stereo not shown)             %                    90
19  CN/C(=N/c1ccc(C)c([S+]([O-])CC(F)(F)F)c1)C(F)(F)F (stereo not shown)             %                   100
20  FC(F)(F)CSc1cc(/N=C(\NC2CC2)c2ccc(Cl)nc2)c(Cl)cc1Cl             %                    90
21  CN/C(=N/c1cc(SCC(F)(F)F)c(C)cc1F)c1ccc(Cl)nc1             %                    90
22  CN/C(=N/c1cc(SCC(F)(F)F)c(C)cc1F)C(F)(F)F             %                   100
23  CN(C)/C(=N\c1cc([S+]([O-])CC(F)(F)F)c(Cl)cc1Cl)c1cccnc1 (stereo not shown)             %                   100
24  CN/C(=N/c1cc([S+]([O-])CC(F)(F)F)c(C)cc1F)c1ccc(C(F)(F)F)cc1 (stereo not shown)             %                    90
25  Cc1cc(F)c(/N=C2\CCCCN2C)cc1[S+]([O-])CC(F)(F)F (stereo not shown)             %                   100
26  CN/C(=N/c1cc([S+]([O-])CC(F)(F)F)c(C)cc1F)c1ccc(C(F)(F)F)nc1 (stereo not shown)             %                   100
27  CN/C(=N\c1cc(SCC(F)(F)F)c(Cl)cc1Cl)c1ccc(Cl)nc1             %                   100
28  Cc1cc(F)c(/N=C(\N)C2(Cl)CC2F)cc1SCC(F)(F)F (stereo not shown)             %                   100
29  CN/C(CC(F)(F)F)=N\c1cc(SCC(F)(F)F)c(C)cc1F             %                   100
30  Cc1cc(F)c(/N=C(\c2ccc(C#N)cc2)N(C)C)cc1SCC(F)(F)F             %                   100
31  Cc1cc(F)c(/N=C(\c2ccccc2F)N(C)C)cc1SCC(F)(F)F             %                   100
32  Cc1cc(F)c(/N=C(/Nc2ccc(Cl)cc2)C(F)(F)F)cc1SCC(F)(F)F             %                   100
33  Cc1cc(F)c(/N=C(/NC2CS(=O)(=O)C2)C(F)(F)F)cc1[S+]([O-])CC(F)(F)F (stereo not shown)             %                    90
34  Cc1cc(F)c(/N=C(\N)[C@H]2CC2(C)C)cc1SCC(F)(F)F             %                   100
35  CN/C(=N\c1cc(SCC(F)(F)F)c(C)cc1F)c1ccccc1Cl             %                   100
36  [O-][S+](CC(F)(F)F)c1cc(/N=C(\NCC(F)(F)F)C2CC2)c(Cl)cc1Cl (stereo not shown)             %                   100
